# STUDY TARGET: T1, purified interference factor(s) from Donor C (human)
# T1 construct: the text names the donors 8, 19 and 30; also called interference in serum from Donor C
# ASSAY EXPLANATION: SPR, interference factor immobilized; % of Fig. 9 reference
METRIC NAME: interference binding, % of Reference Sequence

binder="SEQ ID NO: 83 (VHH) VHH: EVQLVESGGGLVQPGGSLRLSCAASRSIGRLDRMGWYRHRPGEPRELVATITGGSSINYGDSVKGRFTISIDNSKNTVYLQMNSLRPEDAAVYYCNFNKYVTSRDTWGQGTLVTVSS" test_value=61%
binder="SEQ ID NO: 71 (VHH) VHH: EVQLVESGGGLVQPGGSLRLSCAASRSIGRLDRMGWYRHRPGEPRELVATITGGSSINYGDSVKGRFTISIDNSKNTVYLQMNSLRPEDTAVYYCNFNKYVTSRDTWGQGTLVTVSG" test_value=87%
binder="SEQ ID NO: 73 (VHH) VHH: EVQLVESGGGLVQPGGSLRLSCAASRSIGRLDRMGWYRHRPGEPRELVATITGGSSINYGDSVKGRFTISIDNSKNTVYLQMNSLRPEDTAVYYCNFNKYVTSRDTWGQGTLVTVGG" test_value=9%
binder="SEQ ID NO: 84 (VHH) VHH: EVQLVESGGGLVQPGGSLRLSCAASRSIGRLDRMGWYRHRPGEPRELVATITGGSSINYGDSVKGRFTISIDNSKNTVYLQMNSLRPEDTAVYYCNFNKYVTSRDTWGQGTLVTVGS" test_value=83%
binder="SEQ ID NO: 68 (VHH) VHH: EVQLVESGGGLVQAGGSLRLSCAASRSIGRLDRMGWYRHRPGEPRELVATITGGSSINYGDSVKGRFTISIDNSKNTVYLQMNSLRPEDTAVYYCNFNKYVTSRDTWGQGTQVTVSS" test_value=49%
binder="SEQ ID NO: 82 (VHH) VHH: EVQLVESGGGLVQPGGSLRLSCAASRSIGRLDRMGWYRHRPGEPRELVATITGGSSINYGDSVKGRFTISIDNSKNTVYLQMNSLRAEDTAVYYCNFNKYVTSRDTWGQGTLVTVSS" test_value=100%
binder="SEQ ID NO: 38 (VHH) EVQLVESGGGLVQPGGSLRLSCAASGFTFSSYAMSWVRQAPGKGLEWVSGIKSSGDSTRYAGSVKGRFTISRDNAKNTLYLQMNSLRPEDTAVYYCAKSRVSRTGLYTYDNRGQGTLVTVSSGGGGSGGGGSGGGGSGGGGSEVQLVESGGGLVQPGGSLRLSCAASGRTFNNYAMGWFRQAPGKEREFVAAITRSGVRSGVSAIYGDSVKDRFTISRDNAKNTLYLQMNSLRPEDTAVYYCAASAIGSGALRRFEYDYSGQGTLVTVSSA" test_value=7%

// provenance: patent EP2974737A1
